Source: patent US20200317776A1

- Assayed Target: T1, human TREM2 expressed on cells (human, UniProt Q9NZC2 19-230)
- T1 construct: BW5147.G.1.4 cells stably expressing human TREM2 together with Dap12, or endogenous TREM2 of primary human myeloid cells; also called huT2 BW; hTREM2 expressing cell line
- T1 sequence: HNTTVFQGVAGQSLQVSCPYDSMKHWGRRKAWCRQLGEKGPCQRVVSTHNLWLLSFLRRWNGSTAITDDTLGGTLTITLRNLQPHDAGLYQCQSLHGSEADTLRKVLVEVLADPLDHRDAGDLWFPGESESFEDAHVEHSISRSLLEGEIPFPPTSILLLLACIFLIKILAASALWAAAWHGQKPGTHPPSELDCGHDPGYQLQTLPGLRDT
- Test Method Notes: FACS, human DCs; also: test concentration or dose not given here
Quick reference: MFI of the listed items.
Measurement Label: MFI

{"Binder": "AL2p-42 (antibody, V domains shown, Fab and IgG formats under one id) VH: QVQLVQSGAEVKKPGSSVKVSCKASGYAFSSHWMNWVRQAPGQGLEWMGRIYPGEGDTNYAQKFRGRVTITADESTSTAYMELSSLRSEDTAVYYCARLLRNQPGASYAMDYWGQGTLVTVSS VL: GVVMTQTPLSLSVTPGQPASISCRTSRSLVHSNRYTYLHWYLQKPGQSPQLLIYKVSNRRSGVPDRFSGSGSGTDFTLKISRVEAEDVGVYYCSQSTRVPYTFGQGTKLEIK", "Recorded Measurement": "662 MFI"}
{"Binder": "AL2p-56 (antibody, V domains shown, same VH/VL entries as AL2p-55; Fab and IgG formats under one id) VH: EVQLVQSGAEVKKPGSSVKVSCKASGYAFSSHWMNWVRQAPGQGLEWMGRIYPGEGDTNYAQKFHGRVTITADESTSTAYMELSSLRSEDTAVYYCARLLRNKPGESYAMDYWGQGTLVTVSS VL: DVVMTQTPLSLSVTPGQPASISCRTSQSLVHSNAYTYLHWYLQKPGQSPQLLIYKVSNRVSGVPDRFSGSGSGTDFTLKISRVEAEDVGVYYCSQSTRVPYTFGQGTKLEIK", "Recorded Measurement": "155 MFI"}
